Origin of values: patent US20220259303A1

Quick reference: OD450 nm of the listed items.
Experimental system: T1, CLD18A2
T1 construct: also called claudin 18 splice variant A2; CHO-S-CLD18A2
Assay overview: cell ELISA, purified VHH 2 µg/ml on CHO-S-CLD18A2

Binder	OD450 nm, OD450 nm
Anti-C18.2-20 (VHH, not shown: small tags and cut ends, Treated as one molecule; also called C18-20) VHH: QVQLVESGGGLVQPGGSLRLSCAASGSIFSINAMGWYRQAPGKQRELVAAITFGGGSTNYADSVKGRFTISRDNAKNTVYLQMNSLKPEDTAVYYCNADLLVGGFPRRNVYWGQGTQVTVSS	0.621
Anti-C18.2-7 (VHH, not shown: small tags and cut ends, Treated as one molecule; also called C18-7) VHH: QVQLVESGGGLVQPGGSLRLSCAASGSIFLINAMGWYRQAPGKQRELVAVITRGGSANYTDSVKGRFTISRDNAKNTVYLQMNSLKPEDTAVYYCNADLNLRSDPFKWYTFWGQGTQVTVSS	0.658
Anti-C18.2-69 (VHH, not shown: small tags and cut ends, Treated as one molecule; also called C18-69) VHH: QVQLVESGGGLVQPGGSLRLSCAASGSIFSIPVMTWYRQALGKEREFVAGISKGGTSNYADSVKGRFTVSRDNAKNTVYLQMNSLKSEDTAVYYCNAQASSFGWMPLSDYWGQGTQVTVSS	0.573
Anti-C18.2-19 (VHH, not shown: small tags and cut ends, Treated as one molecule; also called C18-19) VHH: QLQLVESGGGLVQPGGSLRLSCAASGVDISSDVMAWYRQAPGKQREFVSGLTRGGSINYADSVKGRFTISRDFAKNTVDLQMNSLKPEDTAVYYCNAEIYTGTFYPRSYWGQGTQVTVSS	0.668
Anti-C18.2-32 (VHH, not shown: small tags and cut ends, Treated as one molecule; also called C18-32) VHH: QLQLVESGGGLVQPGGSLRLSCAASGEISSDAMAWYRQAPGKQRELVAGMTRGGSTNYADSVKGRFTISRDFAKNTVDLQMNSLKPEDTAVYYCNAEIYTGTFYPRSYWGQGTQVTVSS	0.586
Anti-C18.2-15 (VHH, not shown: small tags and cut ends, Treated as one molecule; also called C18-15) VHH: QVQLVESGGGLVQPGGSLRLSCTASGSIFRIDGMHWYRQAPGKQRELVASITPSGITHYADSVKGRFTISRDIAKKMQYLQMNSLKPEDTAVYYCNAHLVKVGGVWSDEYWGQGTQVTVSS	0.671
Anti-C18.2-6 (VHH, not shown: small tags and cut ends, Treated as one molecule; also called C18-6) VHH: QLQLVESGGGLVQPGGSLRLSCAASGGIFSIGVMGWYRQAPGKQRELVATITSRGSTNYADSVKGRFTISGDNAKNTVYLQMNNLKPEDTAVYYCYADLIRPGDFYGMDYWGKGTLVTVSS	0.719
Anti-C18.2-28 (VHH, not shown: small tags and cut ends, Treated as one molecule; also called C18-28) VHH: QVQLVESGGGLVQPGGSLRLSCAASGSIFMINVMGWYRQAPGKQRELVAVITRGASTNYADSVKGRFTISRDNAKNTVYLQMNSLKPEDTAVYYCNADLNLASDPFKWYTYWGQGTQVTVSS	0.598
